- Tested on: 699152-130-R-J1-PDC complex spheroid viability
- assay_method_text: Anticancer human tumor 699152-130-R-J1-PDC patient-derived pancreatic carcinoma cell line growth inhibition [POLQ]
- condition_label: curve of first compound; second compound 0.0316 µM
- Description: Multicellular complex tumor spheroid response to Polymerase (POL) inhibitors (novobiocin, ART-558, RP6685) in combination with a variety of drugs and investigational agents in selected tumor cell lines The POL inhibitors (novobiocin, ART-558, and RP6685) were evaluated both individually and in combination with standard of care and investigational anticancer small molecules within a complex spheroid model of solid tumors. . […]
pIC50: −log10 of the molar value.
quantity_name: pIC50

• CC(C)n1c(=O)n(C)c2cnc3cc(F)c(-c4ccc(OCCCN5CCCCC5)nc4)cc3c21 + COC1C(OC(N)=O)C(O)C(Oc2ccc3c(O)c(NC(=O)c4ccc(O)c(CC=C(C)C)c4)c(=O)oc3c2C)OC1(C)C = > 7.50
• C=CCn1c(=O)c2cnc(Nc3ccc(N4CCN(C)CC4)cc3)nc2n1-c1cccc(C(C)(C)O)n1 + Cc1cccc(N(C)C(=O)C2C(O)CCN2c2nc(C)cc(C(F)(F)F)c2C#N)c1 = < 6.00
• CCCS(=O)(=O)Nc1ccc(F)c(C(=O)c2c[nH]c3ncc(-c4ccc(Cl)cc4)cc23)c1F + Nc1ccc(C#CCN(C(=O)Cc2ncc(C(F)(F)F)cc2C(F)(F)F)c2ccc(F)cc2)nn1 = 5.07
• CNCc1ccc(-c2[nH]c3cc(F)cc4c3c2CCNC4=O)cc1 + COC1C(OC(N)=O)C(O)C(Oc2ccc3c(O)c(NC(=O)c4ccc(O)c(CC=C(C)C)c4)c(=O)oc3c2C)OC1(C)C = < 5.00
• COc1cccc2c1C(=O)c1c(O)c3c(c(O)c1C2=O)CC(O)(C(=O)CO)CC3OC1CC(N)C(O)C(C)O1 (stereo not given) + Nc1ccc(C#CCN(C(=O)Cc2ncc(C(F)(F)F)cc2C(F)(F)F)c2ccc(F)cc2)nn1 = 6.45
• O=c1[nH]cc(F)c(=O)[nH]1 + COC1C(OC(N)=O)C(O)C(Oc2ccc3c(O)c(NC(=O)c4ccc(O)c(CC=C(C)C)c4)c(=O)oc3c2C)OC1(C)C = < 5.00
• O=C(c1cc(Cc2n[nH]c(=O)c3ccccc23)ccc1F)N1CCN(C(=O)C2CC2)CC1 + COC1C(OC(N)=O)C(O)C(Oc2ccc3c(O)c(NC(=O)c4ccc(O)c(CC=C(C)C)c4)c(=O)oc3c2C)OC1(C)C = > 7.50
• CC1COCCN1c1cc(C2(S(C)(=N)=O)CC2)nc(-c2ccnc3[nH]ccc23)n1 (stereo not given) + COC1C(OC(N)=O)C(O)C(Oc2ccc3c(O)c(NC(=O)c4ccc(O)c(CC=C(C)C)c4)c(=O)oc3c2C)OC1(C)C = < 5.00
• CCCS(=O)(=O)Nc1ccc(F)c(C(=O)c2c[nH]c3ncc(-c4ccc(Cl)cc4)cc23)c1F + Cc1cccc(N(C)C(=O)C2C(O)CCN2c2nc(C)cc(C(F)(F)F)c2C#N)c1 = 5.09
• CCc1c2c(nc3ccc(O)cc13)-c1cc3c(c(=O)n1C2)COC(=O)[C@]3(O)CC + Nc1ccc(C#CCN(C(=O)Cc2ncc(C(F)(F)F)cc2C(F)(F)F)c2ccc(F)cc2)nn1 = 7.22

# input Need pIC50, item Nc1ccn(C2OC(CO)C(O)C2(F)F)c(=O)n1 (stereo not given) + COC1C(OC(N)=O)C(O)C(Oc2ccc3c(O)c(NC(=O)c4ccc(O)c(CC=C(C)C)c4)c(=O)oc3c2C)OC1(C)C
# output 6.69

# input Next record, please: Cn1ncnc1[C@H]1c2n[nH]c(=O)c3cc(F)cc(c23)N[C@@H]1c1ccc(F)cc1 + Cc1cccc(N(C)C(=O)C2C(O)CCN2c2nc(C)cc(C(F)(F)F)c2C#N)c1
# output < 7.00

###

- Tested on: 699152-130-R-J1-PDC complex spheroid viability
- assay_method_text: Anticancer human tumor 699152-130-R-J1-PDC cell line growth inhibition [POLQ];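 further: spheroids exposed to agents for 7 days before viability reading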;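 on viability, T/C: percent of DMSO vehicle control viability so 100% = vehicle and 0% = no viable signal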
- condition_label: second compound 0.316 µM; first compound 1 µM; stronger effect = lower value
quantity_name: viability, T/C (%)
Number only, in %; omit the unit.

# input Please state recorded viability, T/C (tested on 699152-130-R-J1-PDC complex spheroid viability) of CC(C)n1c(=O)n(C)c2cnc3cc(F)c(-c4ccc(OCCCN5CCCCC5)nc4)cc3c21 + COC1C(OC(N)=O)C(O)C(Oc2ccc3c(O)c(NC(=O)c4ccc(O)c(CC=C(C)C)c4)c(=O)oc3c2C)OC1(C)C
# output 44.8

###

- System: 699152-130-R-J1-PDC complex spheroid viability
- assay_method_text: Anticancer human tumor 699152-130-R-J1-PDC cell line growth inhibition [POLQ];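 further: spheroids exposed to agents for 7 days before viability reading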;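 on viability, T/C: percent of DMSO vehicle control viability so 100% = vehicle and 0% = no viable signal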
- condition_label: second compound 3.16 µM; first compound 0.316 µM; stronger effect = lower value
Parameter: viability, T/C. Scope: all listed entries.
Number only, in %; omit the unit.

• COc1cccc2c1C(=O)c1c(O)c3c(c(O)c1C2=O)CC(O)(C(=O)CO)CC3OC1CC(N)C(O)C(C)O1 (stereo not given) + Cc1cccc(N(C)C(=O)C2C(O)CCN2c2nc(C)cc(C(F)(F)F)c2C#N)c1 = 55.2
• CCCS(=O)(=O)Nc1ccc(F)c(C(=O)c2c[nH]c3ncc(-c4ccc(Cl)cc4)cc23)c1F + Cc1cccc(N(C)C(=O)C2C(O)CCN2c2nc(C)cc(C(F)(F)F)c2C#N)c1 = 118
• COc1cc2cc(C(=O)CCC(=O)O)sc2cc1OC + COC1C(OC(N)=O)C(O)C(Oc2ccc3c(O)c(NC(=O)c4ccc(O)c(CC=C(C)C)c4)c(=O)oc3c2C)OC1(C)C = 107

# input Need viability, T/C, item CCCS(=O)(=O)Nc1ccc(F)c(C(=O)c2c[nH]c3ncc(-c4ccc(Cl)cc4)cc23)c1F + Nc1ccc(C#CCN(C(=O)Cc2ncc(C(F)(F)F)cc2C(F)(F)F)c2ccc(F)cc2)nn1
# output 124

# input Next record, please: CCCS(=O)(=O)Nc1ccc(F)c(C(=O)c2c[nH]c3ncc(-c4ccc(Cl)cc4)cc23)c1F + COC1C(OC(N)=O)C(O)C(Oc2ccc3c(O)c(NC(=O)c4ccc(O)c(CC=C(C)C)c4)c(=O)oc3c2C)OC1(C)C
# output 124

# input Next record, please: Nc1ccn(C2OC(CO)C(O)C2(F)F)c(=O)n1 (stereo not given) + Nc1ccc(C#CCN(C(=O)Cc2ncc(C(F)(F)F)cc2C(F)(F)F)c2ccc(F)cc2)nn1
# output 55.2

# input Next record, please: C#Cc1c(F)ccc2cc(O)cc(-c3ncc4c(N5CC6CCC(C5)N6)nc(OCC56CCCN5CC(F)C6)nc4c3F)c12 (stereo not given) + Cc1cccc(N(C)C(=O)C2C(O)CCN2c2nc(C)cc(C(F)(F)F)c2C#N)c1
# output 17.4

# input Next record, please: O=c1[nH]cc(F)c(=O)[nH]1 + COC1C(OC(N)=O)C(O)C(Oc2ccc3c(O)c(NC(=O)c4ccc(O)c(CC=C(C)C)c4)c(=O)oc3c2C)OC1(C)C
# output 91.2

###

- System: 699152-130-R-J1-PDC complex spheroid viability
- assay_method_text: Anticancer human tumor 699152-130-R-J1-PDC cell line growth inhibition [POLQ];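 further: spheroids exposed to agents for 7 days before viability reading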;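 on viability, T/C: percent of DMSO vehicle control viability so 100% = vehicle and 0% = no viable signal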
- condition_label: second compound 10 µM; first compound 1 µM; stronger effect = lower value
Parameter: viability, T/C. Scope: all listed entries.
Number only, in %; omit the unit.

Field: example entries. Status: answers known.
• CCc1cc2c(N3CCc4c(cc(Cn5ccnc5)cc4-c4cn(C)nc4C(F)(F)F)C3=O)cc(C)nc2c(OC)n1 + Cc1cccc(N(C)C(=O)C2C(O)CCN2c2nc(C)cc(C(F)(F)F)c2C#N)c1 = 96.1
• O=c1[nH]cc(F)c(=O)[nH]1 + Nc1ccc(C#CCN(C(=O)Cc2ncc(C(F)(F)F)cc2C(F)(F)F)c2ccc(F)cc2)nn1 = 105

Proceeding to the next compound to report its viability, T/C.
# input Need viability, T/C, item C=CCn1c(=O)c2cnc(Nc3ccc(N4CCN(C)CC4)cc3)nc2n1-c1cccc(C(C)(C)O)n1 + COC1C(OC(N)=O)C(O)C(Oc2ccc3c(O)c(NC(=O)c4ccc(O)c(CC=C(C)C)c4)c(=O)oc3c2C)OC1(C)C
# output 68

###

- Test system: 699152-130-R-J1-PDC complex spheroid viability
- assay_method_text: Anticancer human tumor 699152-130-R-J1-PDC cell line growth inhibition [POLQ];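 further: spheroids exposed to agents for 7 days before viability reading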;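 on viability, T/C: percent of DMSO vehicle control viability so 100% = vehicle and 0% = no viable signal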
- condition_label: second compound 0.0316 µM; first compound 10 µM; stronger effect = lower value
quantity_name: viability, T/C (%)
Number only, in %; omit the unit.

Field: example entries. Status: answers known.
* COc1cc(C2c3cc4c(cc3C(OC3OC5COC(C)OC5C(O)C3O)C3COC(=O)C23)OCO4)cc(OC)c1O (stereo not given) + Cc1cccc(N(C)C(=O)C2C(O)CCN2c2nc(C)cc(C(F)(F)F)c2C#N)c1 | 47.6
* Nc1ccn(C2OC(CO)C(O)C2(F)F)c(=O)n1 (stereo not given) + COC1C(OC(N)=O)C(O)C(Oc2ccc3c(O)c(NC(=O)c4ccc(O)c(CC=C(C)C)c4)c(=O)oc3c2C)OC1(C)C | 31.2

# input Please state recorded viability, T/C (tested on 699152-130-R-J1-PDC complex spheroid viability) of CCc1cc2c(N3CCc4c(cc(Cn5ccnc5)cc4-c4cn(C)nc4C(F)(F)F)C3=O)cc(C)nc2c(OC)n1 + COC1C(OC(N)=O)C(O)C(Oc2ccc3c(O)c(NC(=O)c4ccc(O)c(CC=C(C)C)c4)c(=O)oc3c2C)OC1(C)C
# output 100

# input Next record, please: COc1cccc2c1C(=O)c1c(O)c3c(c(O)c1C2=O)CC(O)(C(=O)CO)CC3OC1CC(N)C(O)C(C)O1 (stereo not given) + Cc1cccc(N(C)C(=O)C2C(O)CCN2c2nc(C)cc(C(F)(F)F)c2C#N)c1
# output 10.4
